Target: T1, Rat IL2Rγ extracellular domain expressed with a C-terminal myc-myc-hexahistidine tag (rat)
T1 construct: whole entry is the tagged construct; also called rIL-2Rg-MMH; rat IL-2Rg-MMH
T1 chain: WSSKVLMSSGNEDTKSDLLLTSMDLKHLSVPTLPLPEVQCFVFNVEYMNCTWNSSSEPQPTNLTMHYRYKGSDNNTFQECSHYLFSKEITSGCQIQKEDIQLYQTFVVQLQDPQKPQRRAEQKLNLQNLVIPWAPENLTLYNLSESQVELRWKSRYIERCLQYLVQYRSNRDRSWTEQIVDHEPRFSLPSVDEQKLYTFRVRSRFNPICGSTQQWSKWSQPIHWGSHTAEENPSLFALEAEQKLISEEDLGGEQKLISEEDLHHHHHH
Experiment: SPR Biacore 4000, anti-hFc-captured mAb, 25 C
Entries annotated with measured 100 nM Ag Bound
Only the number, expressed in RU, is required.

Check out these entries, answers already filled in.
{"columns": ["binder", "scale unit", "measured value"],
 "data": [
  ["H4H12890P (antibody, human IgG4 S228P, kappa, V domains shown, fully human anti-IL2Rgamma mAb, human IgG4 Fc) VH: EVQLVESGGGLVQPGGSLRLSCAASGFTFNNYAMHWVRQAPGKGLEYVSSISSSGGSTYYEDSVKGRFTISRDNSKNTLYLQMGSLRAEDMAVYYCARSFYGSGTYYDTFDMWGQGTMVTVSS VL: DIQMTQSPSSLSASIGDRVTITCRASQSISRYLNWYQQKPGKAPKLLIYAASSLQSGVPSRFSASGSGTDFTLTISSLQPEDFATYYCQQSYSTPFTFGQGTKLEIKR", "RU", 0],
  ["H4H13538P (antibody, human IgG4 S228P, kappa, V domains shown, fully human anti-IL2Rgamma mAb, human IgG4 Fc) VH: EVQLVESGGGLVQPGGSLGLSCAASGFTFSNYAMSWVRQAPGKGLEWVSAVSGGGGGTYYADSVKGRFTISRDNSKNTVLLQMNSLRAEDTAVYYCARGRTGGLDYWGPGTLVTVSS VL: DVVMTQSPLSLPVIFGQPASISCRSSQSLVDSDGNTYLNWLQQRPGQSPRRLIYEVSNRDSGVPDRFSGSGSGTDFTLTISRVEAEDVGIYYCMQGTRWPPTFGGGTKVEIKR", "RU", 3]
]}

Turning now to a further binder:
-- ask Please look at this binder and report its 100 nM Ag Bound: H4H12863P (antibody, human IgG4 S228P, kappa, V domains shown, fully human anti-IL2Rgamma mAb, human IgG4 Fc) VH: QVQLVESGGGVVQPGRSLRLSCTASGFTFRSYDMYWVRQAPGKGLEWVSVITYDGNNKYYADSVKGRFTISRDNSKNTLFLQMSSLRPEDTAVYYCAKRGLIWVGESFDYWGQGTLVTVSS VL: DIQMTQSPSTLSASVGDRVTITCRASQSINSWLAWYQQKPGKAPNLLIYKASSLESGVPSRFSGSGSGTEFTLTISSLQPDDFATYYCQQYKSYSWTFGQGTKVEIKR
-- reply 1
